Measured on: GFP-tagged S1P1 receptor (Homo sapiens)
Protocol summary: S1P1 Receptor Internalization Assay
Condition context: CHO-K1 cells expressing GFP-tagged S1P1, 45 min
Endpoint name: EC50 (nM)
Answers are plain numbers, in nM.

Query: Return reported EC50. Input molecule: CCCCCC[C@@H]1CCc2cc([C@@H]3CC[C@](N)(COP(=O)(O)O)C3)ccc2C1 [Example 9]
Response: 361

* * *

System: mice
Protocol summary: Pulmonary Toxicity Assay (BAL protein)
Type: in vivo
Condition context: oral, 30 mg/kg, 24 hr post-dose
Parameter threshold = 10 mg/dL. Response is satisfied when Mouse BAL protein level, Compound Mean meets or exceeds it, else not satisfied.

// below: answered compounds
CCCCCC[C@H]1CCc2cc([C@@H]3CC[C@](N)(CO)C3)ccc2C1; satisfied
CCCCCC[C@H]1CCc2cc([C@H]3CC[C@](N)(CO)C3)ccc2C1; not satisfied

Query: API: above_or_equal(metric=Mouse BAL protein level, Compound Mean, cutoff=10 mg/dL) for item CCCCCOc1ccc2cc([C@@H]3CC[C@](N)(CO)C3)ccc2c1 [Comparative Compound 11, reference compound]
Response: satisfied

Query: API: above_or_equal(metric=Mouse BAL protein level, Compound Mean, cutoff=10 mg/dL) for item CCCCCC[C@@H]1CCc2cc([C@@H]3CC[C@](N)(CO)C3)ccc2C1 (single isomer, unassigned)
Response: not satisfied

Query: API: above_or_equal(metric=Mouse BAL protein level, Compound Mean, cutoff=10 mg/dL) for item CCCCCC[C@@H]1CCc2cc([C@H]3CC[C@](N)(CO)C3)ccc2C1 (single isomer, unassigned)
Response: not satisfied

* * *

Test system: circulating lymphocytes
Protocol summary: Mouse Blood Lymphocyte Reduction (BLR) Assay
Format: in vivo
Condition context: BALB/c mice, oral, 1 mg/kg, 24 hr post-dose
Task for the reader: assign each of the following compounds its reported Percent reduction vs. control (mouse blood lymphocytes).
Give bare numbers, in %.

CCCCCC[C@H]1CCc2cc([C@H]3CC[C@](N)(CO)C3)ccc2C1; 59
CCCCCC[C@H]1CCc2cc([C@@H]3CC[C@](N)(CO)C3)ccc2C1; 78
CCCCCC[C@@H]1CCc2cc([C@H]3CC[C@](N)(CO)C3)ccc2C1 (single isomer, unassigned); 90
CCCCCC[C@@H]1CCc2cc([C@@H]3CC[C@](N)(CO)C3)ccc2C1 (single isomer, unassigned); 88

Continue with the next compound.
Query: Return reported Percent reduction vs. control (mouse blood lymphocytes). Input compound: CCCCCOc1ccc2cc([C@@H]3CC[C@](N)(CO)C3)ccc2c1 [Comparative Compound 11, reference compound]
Response: 52

* * *

Measured on: S1P1 (Homo sapiens)
Sequence (P21453 whole entry): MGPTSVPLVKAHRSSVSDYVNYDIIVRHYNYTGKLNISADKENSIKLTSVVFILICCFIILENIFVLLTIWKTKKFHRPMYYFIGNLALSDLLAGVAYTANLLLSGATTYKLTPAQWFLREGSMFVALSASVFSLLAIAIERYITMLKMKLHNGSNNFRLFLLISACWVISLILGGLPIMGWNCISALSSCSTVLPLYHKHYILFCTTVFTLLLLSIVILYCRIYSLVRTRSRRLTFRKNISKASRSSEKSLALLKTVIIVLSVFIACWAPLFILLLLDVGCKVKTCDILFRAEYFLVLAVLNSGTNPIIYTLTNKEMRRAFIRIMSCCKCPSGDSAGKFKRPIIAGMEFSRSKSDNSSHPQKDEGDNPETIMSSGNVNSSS
Protocol summary: Receptor [35S] GTPγS Binding Assay, S1P1/CHO cell membranes
Condition context: membranes prepared from S1P1/CHO cells
Endpoint name: EC50 (nM)
Answers are plain numbers, in nM.

Query: # assay system S1P1 (Homo sapiens): give EC50 of `CCCCCC[C@@H]1CCc2cc([C@H]3CC[C@](N)(COP(=O)(O)O)C3)ccc2C1`
Response: 0.9

* * *

Measured on: EDG3 equivalent S1P3 (Homo sapiens)
Sequence (Q99500 whole entry): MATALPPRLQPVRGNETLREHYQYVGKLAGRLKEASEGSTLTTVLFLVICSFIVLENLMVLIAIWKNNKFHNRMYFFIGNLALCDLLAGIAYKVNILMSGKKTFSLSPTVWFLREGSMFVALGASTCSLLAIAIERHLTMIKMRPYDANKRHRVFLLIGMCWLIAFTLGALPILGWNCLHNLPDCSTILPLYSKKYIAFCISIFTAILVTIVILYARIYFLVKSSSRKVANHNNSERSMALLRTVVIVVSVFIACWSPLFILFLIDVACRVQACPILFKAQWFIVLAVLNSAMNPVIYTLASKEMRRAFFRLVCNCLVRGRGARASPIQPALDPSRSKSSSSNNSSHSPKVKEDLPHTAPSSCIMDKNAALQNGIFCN
Protocol summary: Receptor [35S] GTPγS Binding Assay, EDG3-Ga15-bla HEK293T cell membranes
Condition context: membranes prepared from EDG3-Ga15-bla HEK293T cells
Endpoint name: EC50

Query: Return reported EC50. Input compound: CCCCCC[C@@H]1CCc2cc([C@H]3CC[C@](N)(COP(=O)(O)O)C3)ccc2C1 [Example 10]
Response: > 62.5 µM
